Cited source for all entries: the nanobody polyreactivity screen of Harvey et al. (2022)

- Assay name: yeast display, Sf9 membrane polyspecificity reagent, FACS + sequencing; frameworks hold sequencing errors
Measure: polyreactivity (PSR sort gate)

Take a look at these entries with their results.
[
  {
    "Monomer sequence": "QVQLVESGGGLVQAGGSLRLSCAASGSIFYDAMGWYRQAPGKERELVAAITSSGGDTSYADSVKGRCTISRDNAKNTVYLQMNSLKPEDTAGYYCNADTYYVEYTAFDYWGQGTQVTVSS",
    "polyreactivity (PSR sort gate)": "low polyreactivity"
  },
  {
    "Monomer sequence": "QVQLVESGGGLLQAGGSLRLSCAASGRTFNYYAMGWYRQAPGKERELVAAISRSGGSTYYADSVKGRFTISRDNAKNTVFLQMNSLKPEDTAVYYCKSDRGSIYGWGQGTQVTVSS",
    "polyreactivity (PSR sort gate)": "high polyreactivity"
  },
  {
    "Monomer sequence": "QVQLVESGGGLVQAGGSLRLSCADSGSTFLVYSMGWYRQAPGKERELVAVIDNGGDTYYADSVKGRFTISRDNAKNTVYLQMNSLKPEDTEVYYCAADLSYLGYWEYDYWGQGSQVTVSS",
    "polyreactivity (PSR sort gate)": "low polyreactivity"
  },
  {
    "Monomer sequence": "QVQLVESGGGLVQAGGSLRLSCAASGSIFAWYAMGRYRQAPGKEMELVAAIRYRGDGTYYADSVKGRFTISRDNAKNTVYLQMNSLKPEDTAVYYCAADSRVYRGGYIYRYGYWGQGTQVTVSS",
    "polyreactivity (PSR sort gate)": "low polyreactivity"
  },
  {
    "Monomer sequence": "QVQLVESGGGLVQAGGSLRLSCAASGFTFYSYAMGWYRQAPGKERELVAAISKRGGDTSYADSVKGRFTISRDNAKNTVYLQMNSLKPEDTAVYYCAKVYVPYGSSGGFLSRYNYWGQGTQVTVSS",
    "polyreactivity (PSR sort gate)": "high polyreactivity"
  }
]

We now examine a further sequence.
response.value for `QVQVVESGGGLVQAGGSLLLICAASGRTFWPNAMGWYRAAPGKERELVAAINWGGGSTYYADSVKVRFTISRDNAKNAVYLQKNSLKPEDTAVYYCAKSLVPWWYKVEYDYWGQGTQVTVSS` (field: polyreactivity (PSR sort gate)) = low polyreactivity

====

- Assay name: yeast display, Sf9 membrane polyspecificity reagent, FACS + sequencing; frameworks hold sequencing errors
Measure: polyreactivity (PSR sort gate)

[
  {
    "Monomer sequence": "QVQLVESGGGLVQAGGSLRLSCAASGRIFGYNVMGWYRQAPGKERELVAAISYGGGRTTYADSVKGRFTISRDNAKNTVYLQMNSLKPEDTAVYYCNAGGQHVTLDNGDYWGQGTQVTVSS",
    "polyreactivity (PSR sort gate)": "high polyreactivity"
  },
  {
    "Monomer sequence": "QVQLVESGGGLVQAGGSLRLSCAASGRIFVKNAMGWYRQAPGKERELVAAISRGGSTYYADSEKGRFTISRDNAKITVYLQMNSLKPEDTAVYNCAPGGQGGDFGDDYWGQGTQVTVSS",
    "polyreactivity (PSR sort gate)": "high polyreactivity"
  },
  {
    "Monomer sequence": "QVQLVESGGGLVQAGGSLRLSCAASGFTFSYYAMGWYRQAPGKERELVAGITTGGGTNYADSVKGRFTISRDNAKNTVYLQMNSLKPEDTAVFYCNADYWYKYDYWGQGTQVTVSS",
    "polyreactivity (PSR sort gate)": "low polyreactivity"
  },
  {
    "Monomer sequence": "QVQLVESGGGLVQAGGSLRLSCAASGSIFLWYDMGWYRQAPGKEREFVASITRSGGSTYYADSVKGRFTISRDNAKNTVYLQMNSLKPEDTAVYYCAAGRRSSWRYYLWYDYWGQGTQVTVSS",
    "polyreactivity (PSR sort gate)": "low polyreactivity"
  },
  {
    "Monomer sequence": "QVQLVESGRGLVQAGGSLRLSCAASGRIFSGNAMGWYRQAPGKERELVAGITWTGGRTYYAASVKGRFTISRDNAKNTVYLQMNSLKPEDTAVYYCAARYTRWSDLMYYWGQGTQVTVSS",
    "polyreactivity (PSR sort gate)": "high polyreactivity"
  }
]

response.value for `QVQLVESGGGLVQAGGSLRLSCAASGGNFWYNTMGWYRQAPWKERELVAAISDSGGRTSYADSVKGRVTISRDNANHTVYLQMNSLKPEDTAVYYCNVDYVVSRGFIYRVDYWGQGTQVTVSS` (field: polyreactivity (PSR sort gate)) = low polyreactivity

response.value for `QVQLVESGGGLVQAGGSLRLSCAASGSTFEPNAMGWSRQEPGKERELVASITSSGGSTYYADSVKGRFTISRDNAKNTVYLQMKSLKPEDTAVYYCNARVPPQGWGPWKAFDYWGQGTQVTVSS` (field: polyreactivity (PSR sort gate)) = low polyreactivity

====

- Assay name: yeast display, Sf9 membrane polyspecificity reagent, FACS + sequencing; frameworks hold sequencing errors

[
  {
    "Monomer sequence": "QVQLVESGGGLVQAGGSLRLSCAASGSTFSWYAMGWYRQAPGKERELVASISFSGGDTSYADSVKGRFTISRDNAKNTVYLQMNSLKPEDTEVYYCGKEYKYETDTIFDYWGQGTQVTVSS",
    "polyreactivity (PSR sort gate)": "low polyreactivity"
  },
  {
    "Monomer sequence": "QVQRVESGGGLVQAGGSLRLSCAASGLTFEYNAMGWYRQAPGKEREFVATISNGGITSYADSVKGRFTISRDNAKNTVYLQMNSLKPEDTGVYYCAASYADSPTTDQLWLEYDSWGQGTQVTVSS",
    "polyreactivity (PSR sort gate)": "low polyreactivity"
  },
  {
    "Monomer sequence": "QVQLVESGGGLVQAGGRLSLSCAASGSTFAYYAMGWYRQAPGKERELVAGITWTGGSTYYADSVKGRFTNSRDNAKNTVYLQMNSLKPEDTAVYYCAVTYPYGYEYDHWGQGTQVTVSS",
    "polyreactivity (PSR sort gate)": "low polyreactivity"
  },
  {
    "Monomer sequence": "QVQLVESVGGLVQAGGSLRLSCAASGRTLLYNAMGWYRQAPGKERELVAAISRGGSTYYADSVNGRFTISRDNAKNTVYLQMNSLKPEDTAVYYCATGTWRYRYDYWGQGTQVTVSS",
    "polyreactivity (PSR sort gate)": "low polyreactivity"
  }
]

====

- Assay name: yeast display, Sf9 membrane polyspecificity reagent, FACS + sequencing; frameworks hold sequencing errors
Measure: polyreactivity (PSR sort gate)

Take a look at these entries with their results.
[
  {
    "Monomer sequence": "QVQLVESGGGLVQAGGSLRLSCAASGGTFYDNDMGWYRQAPGKERELVATITYSGTSTYYADSVKGRFTISRDNAKNTVYLELNSLKTEDTAVYYCATDVLLYFEPVNLDYWGEGTQVTVSS",
    "Experimental result": "low polyreactivity"
  },
  {
    "Monomer sequence": "QGQLVESGGGLVQAGGSLRLSCAASGRTFYRYAMGWYRQAPGKERELVAAITRRGDSTSYADSVKGRFTISRDNAKNTVYLQMNSLKPEDTAVYYCATLVQGSVYGLYGGGYWGQGTQVTVSS",
    "Experimental result": "low polyreactivity"
  },
  {
    "Monomer sequence": "QVHLVESGGGLVQAGGSHRLSCAASGRTFDNYAMGWYRQAPGKERELVAAISRRGGSTYYADSVKGRFTISRDNAKNTVYLQMNSLKPEDTAVYYCAADRLVWKPTVVGFYYWGQGTQVTVSS",
    "Experimental result": "high polyreactivity"
  },
  {
    "Monomer sequence": "QVQLVEAGGGLVQAGGSLRLSCAASGSTLVYNDMGWYRQAPGKEREFVAAIRSNDGSTYYADSVKGRFTISRDNAKNTVYLQMNSLKPEDTAVYFCNKDVWDGYDWPEFDYWGQGTQVTVSS",
    "Experimental result": "low polyreactivity"
  },
  {
    "Monomer sequence": "QVQLVESGGGIVQAGGSLRLSCAASGFTFPVYAMGWYRQAPGKEREFVAAITYIGGSTYADSVKGRFTISRDNAKNTVYLQMNSLKPEDTAVYYCAADIITEYWADYLGYLEYDYWGQGTQVTVSS",
    "Experimental result": "low polyreactivity"
  },
  {
    "Monomer sequence": "QVQLVESGGGLVQAGGSLRISCAASGSILDGNAMGLYRQAPGKERELFAGISESDGSTNYADSVKGRFTISRDNAKNTVYLQMNSLNPEDTAVYYCAADIWTCGDIPYDYWGQGTQVTVSS",
    "Experimental result": "low polyreactivity"
  },
  {
    "Monomer sequence": "QVQLVESGGGLVQAGGSLRLSCAASGRTFYRNAMGWYRQAPGKERELVAAITSGGSTYYADSVKGRFTISRDNAKNTVYLQINSLKPEDTAVYYCAKRKGWVPSRSWTPAFWGQGTQVTVSS",
    "Experimental result": "low polyreactivity"
  },
  {
    "Monomer sequence": "QVQLVESGGGLVQAGGSLRLSCAASGFTFNTYAMGWYRQAPGKERELVAAITTSGGSTYYADSVKGRFTISRDNAKNTVYLQMNSLKPEDTAVYSCAAKSGRGVVRGRDDYWGQGTQVTVSS",
    "Experimental result": "high polyreactivity"
  },
  {
    "Monomer sequence": "QVQLVESGGGLVQAGGSLRLSCPSSGFTFSAYAMGWYRQAPGKERELVAAISTRGGSTRYADSVKGRFTISRDNAKNTVNVQMNSLTPDDTAVYYCAADTRSFYRYDYWGQGTQVTVSS",
    "Experimental result": "high polyreactivity"
  },
  {
    "Monomer sequence": "QVQLVESGGGLVQAGGSLRLSCAASGITFDYYAMGWYRQAPGKERELVAAISWGGGSTYYADSVKGRFTISRDNAKNTVYLQMNSLKPEDTAVYYCAADIVSSPSSYVPPGDYWGQGTQVTVSS",
    "Experimental result": "low polyreactivity"
  }
]

We now examine a further sequence.
response.value for `QVQLVESGGGLVQAGGSLRLSCAASGRTFLGYAMGWYRQAPGKERELVAAISYSGSSTYYADSVKGRFTISRDNAKNTVYLQMNSLKPEDTAVYYCAAQFYFLFDYWGQGTQVTVSS` (field: polyreactivity (PSR sort gate)) = low polyreactivity
